- Test system: HCT-15 colon
- protocol_notes: NCI-60 one-dose screen, 48 h (100 = growth as untreated, 0 = no growth, -100 = all killed)
- conditions_used: 10 µM unless noted
This is part of a sample that, as a whole, favours compounds with a hit. Of some 83,000 tested, about 20% had one in any assay. The source made the active and inactive calls. How the source made its calls: active means growth percent below 10; inactive means the rest.
outcome_measure: growth

Exam item: # query: growth of entry O=c1oc2ccc(-c3ccc(F)cc3F)cc2c(=O)n1-c1cccc(C(F)(F)F)c1
Marked response: 13% (inactive)

Exam item: What does the data say about its growth? Entry: O=c1c(-c2nc3ccccc3[nH]2)cc2ccccc2n1Cc1cn(Cc2ccc(F)cc2)nn1
Marked response: 16.9% (inactive)

Exam item: So what's the measured growth for this one? CCCSC1=NC2C(N(CC)C(=O)N2CC)N1/N=C/C=C/c1ccccc1[N+](=O)[O-] (stereo not given)
Marked response: 16.1% (inactive)

Exam item: Name the reported growth value associated with the compound O=C(Nc1ccc(I)cc1F)c1cc(F)ccc1O
Marked response: 0.237% (active)

Exam item: // query growth value for entry CCN(CC)CCNC(=O)C(Cl)=C1C(Cl)=C(Cl)C(Cl)=C1Cl
Marked response: 50.5% (inactive)

Exam item: What value of growth has been reported for the following compound? COc1ccc(CCN2C(=O)CCSC2=S)cc1
Marked response: 12.4% (inactive)

Exam item: Requested read-out: growth. Entry: O=C(Nc1ccc(Cl)cc1)c1cc2ccccc2cc1OP(=O)(O)O
Marked response: 23.2% (inactive)

Exam item: Fill in: growth of CN(C)c1ccc(N=Cc2ccc(N3CCOCC3)cc2)cc1 is ___
Marked response: 77.3% (inactive)

Exam item: Could you share which growth value was measured for CCOC(=O)c1sc(-c2ccc(OS(=O)(=O)c3ccccc3[N+](=O)[O-])c(C=O)c2)nc1C ?
Marked response: 6.3% (active)

Exam item: # growth lookup, item Clc1ccc(Nc2scc3[n+]2CCC3)cc1
Marked response: 93.4% (inactive)

Exam item: Any idea what growth was measured for Brc1ccc(Nc2nc3ccccc3nc2Nc2ccc(Br)cc2)cc1 ?
Marked response: -21% (active)

Exam item: Param item = COC(=O)c1c2c(c(C)[n+]([O-])c1C)C(=O)C=C(NCc1ccc(F)c(F)c1)C2=O ; retrieve measured growth.
Marked response: -83.3% (active)

Exam item: Need growth of CC[C@@H](C)[C@H](NC(=O)Cn1cc(CNC(=O)[C@@H](NC(=O)OCc2ccccc2)C(C)C)nn1)C(=O)O , thanks.
Marked response: 111% (inactive)

Exam item: Look at this compound and give its reported growth. COc1cc(C#N)cc2[nH]c(=O)oc12
Marked response: 95.6% (inactive)

Exam item: growth lookup needed for O=C(CSc1nc2ccccc2c(=O)n1-c1ccccc1)Nc1ccc(C(=O)/C=C/c2ccc(Cl)cc2)cc1 , thanks.
Marked response: 98.1% (inactive)

Exam item: For CC1=C(C(=O)OCC2CCN(C(=O)OC(C)(C)C)CC2)[C@@H](c2cccc(C#N)c2)C2=C(CC(C)(C)CC2=O)N1 , what is its reported growth?
Marked response: 19.5% (inactive)

Exam item: Looking for the measured growth of O=C(/C=C/c1ccc(C(F)(F)F)cc1)c1ccc(Nc2nc(NCCO)nc(Nc3ccc(Cl)cc3)n2)cc1 , can you help?
Marked response: 6.59% (active)

Exam item: Consider the compound Cc1nn(-c2nc3ccccc3[nH]2)c2c1C(c1ccc(OCC(N)=O)cc1)CC(=O)N2 (stereo not given) and give its measured growth.
Marked response: 98% (inactive)

Exam item: GET /values?readout=growth&item= O=C(/C=C/c1ccccc1)c1ccc(Nc2nc(NCCO)nc(Nc3ccc(Cl)cc3)n2)cc1
Marked response: 8.55% (active)

Exam item: // lookup growth for COc1ccc(-n2c(C(O)c3ccccc3)n[nH]c2=S)cc1 (stereo not given)
Marked response: 107% (inactive)

Exam item: # lookup: growth of Cc1ccc2sc3c(NCCCNCCO)nc4ccccc4c3c(=O)c2c1
Marked response: -8.68% (active)

Exam item: Reported growth, compound COc1ccc(/C=C2\CCC/C(=C\c3ccc(OC)c(OC)c3)C2=O)cc1OC : ____
Marked response: -8.77% (active)

Exam item: Could you share which growth value was measured for O=S(=O)(Nc1ncccn1)c1ccc(NC2Nc3nc4ccccc4nc3S2)cc1 (stereo not given) ?
Marked response: 96.9% (inactive)

Exam item: # lookup: growth of Cc1cccc2c(=O)c3c(sc12)c(NCCN)nc1ccccc13
Marked response: -79.9% (active)

Exam item: For the compound shown here, COc1cc(C2CC(c3ccc(Nc4nc(NCCO)nc(N5CCOCC5)n4)cc3)=NN2c2cc(Cl)cc(Cl)c2)cc(OC)c1OC (stereo not given) , give the reported growth.
Marked response: 31.5% (inactive)

Exam item: Quick one: growth for O=C(N/N=C/c1ccccc1Cl)C(=O)Nc1cccc(C(F)(F)F)c1 ?
Marked response: 97.1% (inactive)

Exam item: So what does the record say about growth for O=C(Nc1ccc(-c2nc3ccc(NC(=O)c4ccc(Cl)cc4)cc3[nH]2)cc1)c1ccc(Cl)cc1 ?
Marked response: 32.1% (inactive)

Exam item: Using the record for Cc1ccc(Cn2c(N3CCC(C(=O)NCc4cccs4)CC3)nc3ccccc32)cc1 , report its growth.
Marked response: 87% (inactive)

Exam item: Return reported growth; argument: O=C1c2cc(Br)ccc2Oc2cc([N+](=O)[O-])ccc2N1c1ccc(I)cc1F
Marked response: 97.7% (inactive)

Exam item: Please look up its growth: O=c1c2cccc(F)c2sc2c(N3CCNCC3)nc3ccccc3c12
Marked response: 5.87% (active)

Exam item: Could you share which growth value was measured for NC(=O)CSc1nc(-c2ccc(F)cc2)cc(-c2ccco2)n1 ?
Marked response: 107% (inactive)

Exam item: // query growth value for entry Fc1cccc(COc2ccc(Nc3ncnc4onc(-c5ccccc5)c34)cc2)c1
Marked response: 20.2% (inactive)

Exam item: growth lookup needed for CCOC(=O)CSc1c(-c2ccccc2)c2cc(Cl)ccc2[nH]c1=O , thanks.
Marked response: 91.7% (inactive)

Exam item: Look up growth: O=c1c(-c2nc3ccccc3[nH]2)cc2ccccc2n1Cc1cn(Cc2ccc(N3CCOCC3)cc2)nn1
Marked response: 78.6% (inactive)

Exam item: Form field: reported growth of CCCCc1c(CCC)c(=N)c2ccccc2n1C
Marked response: 44.5% (inactive)

Exam item: Query: growth; subject: COc1cc(/C=C2\CCC/C(=C\c3cc(CN4CCCCC4)c(O)c(OC)c3)C2=O)cc(CN2CCCCC2)c1O
Marked response: 52.3% (inactive)

Exam item: What value of growth has been recorded for this entry: CC1=C(C(=O)OCC2CCN(C(=O)OC(C)(C)C)CC2)[C@H](c2cccc(Br)c2)C2=C(CC(C)(C)CC2=O)N1
Marked response: 21% (inactive)

Exam item: Look at this compound and give its reported growth. N#Cc1c(N)nc2c(c1N)C(c1ccc(F)cc1)c1ccc(N)cc1O2 (stereo not given)
Marked response: 100% (inactive)

Exam item: Name the reported growth value associated with the compound O=C(c1nc2ccccc2[nH]1)C1C(c2ccc(F)cc2)C2CC3CCCCC3N2[C@@]12C(=O)Nc1ccc(Cl)cc12 (stereo not given in full)
Marked response: 28% (inactive)

Exam item: Any idea what its growth is? The compound is O=C(Nc1ccccc1O)c1ccc(Oc2cccc(C(=O)Nc3ccccc3O)c2)cc1
Marked response: 32.2% (inactive)

* * *

- System: SF-295 CNS
- protocol_notes: NCI-60 one-dose screen, 48 h
- conditions_used: 10 µM unless noted
Compounds without any hit were thinned out: in the full panel of roughly 83,000, 20% have a hit. Calls of active or inactive are those of the source. The calls were made as follows: active = growth percent below 10; inactive = the rest.
Classes to choose from: yes for active, no for inactive

Exam item: I would be grateful if you could indicate the recorded call for N#CC(C#N)=Cc1c(-c2ccccc2)[nH]c2ccccc12 .
Marked response: no

Exam item: Test call for this molecule, please: O=c1oc2ccc(Cl)cc2c(=O)n1-c1cc(C(F)(F)F)cc(C(F)(F)F)c1
Marked response: yes

Exam item: For O=NN(C(=O)NC1CCC(C(=O)O)CC1)C1CCC(C(=O)O)CC1 (centres undefined) , which call appears in the assay record?
Marked response: no

Exam item: Field: outcome | Entry: CCOC(=O)c1sc(-c2ccc(OS(=O)(=O)C[C@]34CCC(CC3=O)C4(C)C)c(C=O)c2)nc1C
Marked response: no

Exam item: Please state the recorded outcome for this molecule: CCCC(=O)CC(C)=O.CCCC(=O)CC(C)=O.[Cu]
Marked response: no

Exam item: Could you please tell me the result logged for COC(=O)/C(CCC=C(C)C)=C1\[C@@H](OC(C)=O)C[C@@]2(C)[C@H]1C[C@@H](O)[C@H]1[C@@]3(C)CC[C@H](NCc4ccccc4)[C@@H](C)[C@@H]3CC[C@@]12C in this assay?
Marked response: no

Exam item: Kindly provide the recorded test outcome for the following molecule: CC(C)C[C@H](C(=O)N[C@@H](C)C(N)=O)N1CC=CCN(O)S1(=O)=O
Marked response: no

Exam item: Please share the test call associated with O=C1c2cc(Cl)ccc2Oc2cc([N+](=O)[O-])ccc2N1c1ccc(F)cc1F .
Marked response: no

Exam item: GET /call?item= Cc1ccc(N=NC2C(=O)N(c3ccc(Cl)cc3)N(c3ccc(Cl)cc3)C2=O)cc1 returns the recorded outcome of this test.
Marked response: no

Reference source for all entries: PubChem BioAssay (NCI)
